# SYSTEM NAME: RasGRP3 (Homo sapiens)
# Construct: full-length
# Sequence (Q8IV61 whole entry): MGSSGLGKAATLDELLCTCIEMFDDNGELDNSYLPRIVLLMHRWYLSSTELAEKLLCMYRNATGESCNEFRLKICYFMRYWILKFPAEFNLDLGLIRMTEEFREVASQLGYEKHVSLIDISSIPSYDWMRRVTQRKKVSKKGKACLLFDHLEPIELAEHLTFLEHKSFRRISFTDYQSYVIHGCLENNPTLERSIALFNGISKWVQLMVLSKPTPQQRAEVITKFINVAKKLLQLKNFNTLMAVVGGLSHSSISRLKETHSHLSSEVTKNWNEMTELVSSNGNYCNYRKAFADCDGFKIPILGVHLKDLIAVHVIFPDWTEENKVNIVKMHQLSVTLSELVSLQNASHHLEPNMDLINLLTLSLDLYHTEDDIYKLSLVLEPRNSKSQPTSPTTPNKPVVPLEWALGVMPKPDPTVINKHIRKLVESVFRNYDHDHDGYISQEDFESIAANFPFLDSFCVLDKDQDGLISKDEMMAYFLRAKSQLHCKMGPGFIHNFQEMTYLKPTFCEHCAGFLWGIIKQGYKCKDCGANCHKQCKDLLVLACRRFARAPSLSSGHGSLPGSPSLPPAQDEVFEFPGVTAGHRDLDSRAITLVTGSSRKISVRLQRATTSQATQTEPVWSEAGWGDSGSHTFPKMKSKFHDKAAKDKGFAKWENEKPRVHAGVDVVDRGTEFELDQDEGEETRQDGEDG
# PROTOCOL DESCRIPTION: [3H]PDBu radioligand binding
RECORDED METRIC: pKd
Lab note: report pKd as minus log10 of the concentration in molar units, number only.

QUERY: Retrieve pKd measured for CCCC(=O)O[C@@H]1[C@@H](C)[C@@]2(O)[C@@H](C=C(CO)C[C@]3(O)C(=O)C(C)=C[C@@H]23)[C@@H]2C(C)(C)[C@]12OC(=O)CCC [PDBu, phorbol 12,13-dibutyrate] and print it.
RESULT: 9.38
